- run description: In vivo pharmacokinetic evaluation in CD-1 mice
- recorded conditions: male, mouse, plasma, 1 mg/kg, IV, dose IV/PO 1/2 mg/kg, read-out: Half-life T1/2 (IV) (converted)
Exercise: for every item that follows, state its recorded half-life.
One number for each entry, in h.

Worked examples follow.
{"test smiles": "Cc1cc(N[C@@H]2CCCN(CC#N)C2)nnc1-c1ccc(C2CC2)cc1O", "half-life / h": 1.24}
{"test smiles": "Cc1cc(N[C@@H]2CCCN(C3COC3)C2)nnc1-c1ccc(C2CC2)cc1O", "half-life / h": 1.13}
{"test smiles": "Cc1cc(N[C@@H]2CCCN(C)C2)nnc1-c1ccc(-c2ccc(F)cc2)cc1O", "half-life / h": 25.7}

// half-life lookup, compound = Cc1cc(N[C@@H]2CCCN(C3COC3)C2)nnc1-c1ccc2sccc2c1O , result: 1.75

----------
- run description: In vivo pharmacokinetic evaluation in SD rats
- recorded conditions: male, rat, plasma, dose IV/PO 1/2 mg/kg, read-out: Bioavailability F
Counter-ions that a name gives are not always drawn.
Could you label it t if measured bioavailability is 70% or higher, and f otherwise?

Solved cases below.
{"compound": "Cc1cc(N[C@@H]2CCCN(C(C)C)C2)nnc1-c1ccc2sccc2c1O", "class assignment": "t"}
{"compound": "Cc1cc(N[C@@H]2CCCN(C3COC3)C2)nnc1-c1ccc2sccc2c1O", "class assignment": "t"}
{"compound": "Cc1cc(N[C@@H]2CCCN(C)C2)nnc1-c1ccc2sccc2c1O [Hydrochloride of compound 20]", "class assignment": "f"}

Decide: is the reported value of bioavailability for Cc1cc(N[C@@H]2CCCN(CC#N)C2)nnc1-c1ccc2sccc2c1O equal to or greater than 70%?
f

----------
- assay system: NLRP3 (Homo sapiens)
- Construct: This experiment utilized the human-derived monocyte cell line THP1; endogenous in cells; host or cells: THP-1 (human monocyte line, PMA-differentiated into macrophages)
- run description: Detecting IC50 of NLRP3 inhibitor by using THP-1 cells (IL-1β secretion, CBA)
- Format: cell-based
- recorded conditions: PMA/LPS/ATP, IL-1β in supernatant
- Procedure: 1. Experimental principle: This experiment utilized the human-derived monocyte cell line THP1 to investigate the inhibitory activity (IC50) of NLRP3 inhibitor on cellular IL-1β secretion. […] (6) On the third day, 5 μL of the supernatant was taken, diluted 10-fold, and the content of IL-1β in the supernatant was detected by cytometric bead array (CBA).
Where a name gives a salt, the structure may show the parent alone.
Assignment: determine reported log10 of IC50 for the given compounds.
Hello, just confirming the data are log10 of IC50 with units of nM.

{"compound": "Cc1cc2c(O)c(-c3nnc(N[C@@H]4CCCC[C@H]4O)cc3C)ccc2s1 [Hydrochloride of compound 67]", "meas value": 1.22}
{"compound": "Cc1cc(N[C@@H]2CCCN(C3COC3)C2)nnc1-c1ccc2c(c1O)CCC2", "meas value": 0.19}
{"compound": "Cc1cc2c(O)c(-c3nnc(N[C@@H]4CCCN(C)C4)cc3C)ccc2s1 [Hydrochloride of compound 43]", "meas value": 0.25}
{"compound": "Cc1cc(N[C@@H]2CCCN(C)C2)nnc1-c1ccc2c(c1O)CCC2", "meas value": -0.62}

Now let's try a different one.
The compound identified as Cc1cc(NC2CCCN(C3CC(O)C3)C2)nnc1-c1ccc2sccc2c1O (centres unmarked) registered its log10 of IC50 at 0.29

----------
- run description: In vivo pharmacokinetic evaluation in CD-1 mice
- recorded conditions: male, mouse, plasma, 2 mg/kg, dose IV/PO 2/10 mg/kg, read-out: Clearance rate CL
Structures can show the parent of a compound that is named as a salt.
metric: clearance
Note to self: number, then unit, no commentary.

{"compound": "Cc1cc(N[C@@H]2CCCC[C@H]2O)nnc1-c1ccc2sccc2c1O [Hydrochloride of compound 60]", "clearance": "12.8 mL/min/kg"}

For this compound ( Cc1cc(N[C@@H]2CCCN(C)C2)nnc1-c1ccc2sccc2c1O [Hydrochloride of compound 20] ), measured clearance is 28.7 mL/min/kg

----------
- assay system: NLRP3 (Homo sapiens, UniProt Q96P20)
- Construct: This experiment utilized the human-derived monocyte cell line THP1; endogenous in cells
- Sequence (Q96P20 whole entry): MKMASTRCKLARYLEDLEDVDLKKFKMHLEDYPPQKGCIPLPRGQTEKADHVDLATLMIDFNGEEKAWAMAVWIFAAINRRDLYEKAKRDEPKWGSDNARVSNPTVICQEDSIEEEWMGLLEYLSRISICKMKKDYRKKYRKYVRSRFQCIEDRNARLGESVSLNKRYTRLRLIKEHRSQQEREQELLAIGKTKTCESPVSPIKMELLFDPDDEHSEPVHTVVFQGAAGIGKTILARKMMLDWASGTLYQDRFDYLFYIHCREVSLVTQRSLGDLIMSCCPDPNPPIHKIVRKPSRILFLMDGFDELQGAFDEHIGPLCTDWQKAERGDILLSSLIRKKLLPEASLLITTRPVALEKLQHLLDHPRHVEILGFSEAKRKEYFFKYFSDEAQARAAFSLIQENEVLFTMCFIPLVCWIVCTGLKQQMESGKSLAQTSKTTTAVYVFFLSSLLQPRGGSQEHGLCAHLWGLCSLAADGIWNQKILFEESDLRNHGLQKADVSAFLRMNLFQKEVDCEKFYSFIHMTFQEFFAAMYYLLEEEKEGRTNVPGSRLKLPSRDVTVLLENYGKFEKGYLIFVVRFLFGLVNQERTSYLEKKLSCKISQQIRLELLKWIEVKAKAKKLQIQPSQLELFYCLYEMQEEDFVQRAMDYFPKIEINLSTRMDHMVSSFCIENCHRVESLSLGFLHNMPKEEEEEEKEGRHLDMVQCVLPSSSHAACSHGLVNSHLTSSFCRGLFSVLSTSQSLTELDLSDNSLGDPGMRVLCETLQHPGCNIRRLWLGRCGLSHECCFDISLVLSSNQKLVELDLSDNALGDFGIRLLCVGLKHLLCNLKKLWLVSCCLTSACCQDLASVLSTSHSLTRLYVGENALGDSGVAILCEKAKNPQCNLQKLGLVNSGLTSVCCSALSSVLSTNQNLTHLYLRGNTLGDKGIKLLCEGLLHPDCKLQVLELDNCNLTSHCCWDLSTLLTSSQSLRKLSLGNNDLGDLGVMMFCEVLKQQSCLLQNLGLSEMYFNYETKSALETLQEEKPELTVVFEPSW
- run description: Detecting IC50 of NLRP3 inhibitor by using THP-1 cells (IL-1β secretion, CBA)
- recorded conditions: PMA/LPS/ATP, IL-1β in supernatant
Where a name gives a salt, the structure may show the parent alone.
Record form. Attribute: IC50. Fill in for each entry.
Give bare numbers, in nM.

Please review the entries below; each comes with its answer.
{"molecule": "Cc1cc(N[C@@H]2CCCN(C3COC3)C2)nnc1-c1ccc(C2CCCC2)cc1O [Compound 27a]", "assay system": "NLRP3 (Homo sapiens, UniProt Q96P20)", "IC50 (nM)": 41.5}
{"molecule": "Cc1cc(N[C@H]2CCCC[C@@H]2O)nnc1-c1ccc2sccc2c1O [Hydrochloride of compound 64]", "assay system": "NLRP3 (Homo sapiens, UniProt Q96P20)", "IC50 (nM)": 21.1}
{"molecule": "Cc1cc(N[C@@H]2CCCN(C(=O)CCN(C)C)C2)nnc1-c1ccc2sccc2c1O", "assay system": "NLRP3 (Homo sapiens, UniProt Q96P20)", "IC50 (nM)": 0.142}

Below is a list of molecules. For each, state its recorded IC50.
1. Cc1cc(N[C@@H]2CCCN(CC(C)(C)O)C2)nnc1-c1ccc2sccc2c1O [Formate of compound 47]
2. Cc1cc(N[C@@H]2CCCN(C3COC3)C2)nnc1-c1ccc(C2CC2)cc1O
3. Cc1cc(N[C@@H]2CCCN(C)C2)nnc1-c1ccc2sc(F)cc2c1O [Hydrochloride of compound 44a]
4. Cc1cc(N[C@@H]2CCCN(C3CCOCC3)C2)nnc1-c1ccc(C2CC2)cc1O

1: 0.69; 2: 9.2; 3: 0.076; 4: 2.09

The molecule Cc1c(N[C@@H]2CCCC[C@H]2O)nnc(-c2ccc3sccc3c2O)c1C [Hydrochloride of compound 73] showed IC50 equal to 3.21

----------
- assay system: NLRP3 (Homo sapiens)
- Construct: This experiment utilized the human-derived monocyte cell line THP1; endogenous in cells
- run description: Detecting IC50 of NLRP3 inhibitor by using THP-1 cells (IL-1β secretion, CBA)
- recorded conditions: PMA/LPS/ATP, IL-1β in supernatant
Counter-ions that a name gives are not always drawn.
Give measured pIC50 for each item. Keep answers brief.
Give bare numbers, as −log10 of the molar value.

Recorded results for 4 molecules are shown here.
{"molecule": "Cc1cc(N[C@@H]2CCCN(C)C2)nnc1-c1ccc2sccc2c1O [Hydrochloride of compound 20]", "metric": "pIC50", "meas value": 10.10}
{"molecule": "Cc1cc(N[C@@H]2CCCN(CC#N)C2)nnc1-c1ccc(C2CC2)cc1O", "metric": "pIC50", "meas value": 8.33}
{"molecule": "Cc1cc(N[C@@H]2CCCN(CC#N)C2)nnc1-c1ccc2sccc2c1O", "metric": "pIC50", "meas value": 9.13}
{"molecule": "Cc1cc(N[C@@H]2CCCN(C3CCC3)C2)nnc1-c1ccc2c(c1O)CCC2 [Hydrochloride of compound 19]", "metric": "pIC50", "meas value": 9.12}

# return pIC50 for each item in the list
1. Cc1cc(NC[C@@H](C)O)nnc1-c1ccc2sccc2c1O [Hydrochloride of compound 57]
2. Cc1cc(N[C@@H]2CCCN(CC(F)(F)F)C2)nnc1-c1ccc2sccc2c1O
3. Cc1cc(NC2CN(C)CC(F)(F)C2)nnc1-c1ccc2sccc2c1O (single isomer, unassigned) [Compound 70b]
4. Cc1cc2c(O)c(-c3nnc(NCCN(C)C)cc3C)ccc2s1 [Hydrochloride of compound 58]
5. Cc1cc(N[C@@H]2CCCN(C)C2)nnc1-c1ccc2sc(F)c(F)c2c1O [Hydrochloride of compound 44b]
6. Cc1cc(N[C@@H]2CCCN(CC3CC3)C2)nnc1-c1ccc2sccc2c1O
7. Cc1cc(N[C@@H]2CCCN(C3COC3)C2)nnc1-c1ccc2sccc2c1O

[8.47, 8.54, 8.48, 9.07, 8.38, 9.72, 9.28]

For each listed entry, give its pIC50.
1. Cc1cc(N[C@@H]2CCCN(CC(N)=O)C2)nnc1-c1ccc2c(c1O)CCC2 [Compound 12b]
2. Cc1cc(N[C@H]2COC[C@@H]2O)nnc1-c1ccc2sccc2c1O [Hydrochloride of compound 59]
3. Cc1cc(N[C@@H]2CCCN(C3COC3)C2)nnc1-c1ccc(C2=CCCC2)cc1O [Compound 27b]
4. Cc1cc(N[C@@H]2CCCN(C(=O)C3CC3)C2)nnc1-c1ccc2sccc2c1O
5. Cc1cc(N[C@@H]2CCCN(C(C)C)C2)nnc1-c1ccc2sccc2c1O

[8.50, 8.76, 7.59, 8.16, 10.05]

----------
- run description: In vivo pharmacokinetic evaluation in CD-1 mice
- recorded conditions: male, mouse, plasma, dose IV/PO 1/2 mg/kg, read-out: Peak concentration Cmax
metric: Cmax

Recorded results for 3 compounds are shown here.
{"compound": "Cc1cc(N[C@@H]2CCCN(C3COC3)C2)nnc1-c1ccc2sccc2c1O [Compound 26]", "Cmax": "2.07 µM"}
{"compound": "Cc1cc(N[C@@H]2CCCN(C)C2)nnc1-c1ccc(-c2ccc(F)cc2)cc1O [Compound 4]", "Cmax": "2.91 µM"}
{"compound": "Cc1cc(N[C@@H]2CCCN(CC#N)C2)nnc1-c1ccc(C2CC2)cc1O [Compound 23]", "Cmax": "3.84 µM"}

Now, please, on to the next compound.
Looking up Cc1cc(N[C@@H]2CCCN(C3COC3)C2)nnc1-c1ccc(C2CC2)cc1O [Compound 22] , I see its Cmax listed as 3.22 µM
